Target: T1, human GPC3 on CHO-K1-human GPC3 cells (CHOK1-hGPC3.2B5) (human, UniProt P51654 25-554)
T1 construct: whole, on cells
Test: FACS, CHOK1-hGPC3.2B5 cells;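 further: flow cytometry of humanized antibodies binding to the cells over one hour in the cold, read as cell mean fluorescence intensity, with EC50 obtained by curve fitting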
Quantity Kind: EC50 (nM)

Binder | Recorded Result
hAb003LH1L1 (antibody, human IgG1, V domains shown, Humanized F2.154.1; VH H1 + VL L1; expressed as human IgG1) VH: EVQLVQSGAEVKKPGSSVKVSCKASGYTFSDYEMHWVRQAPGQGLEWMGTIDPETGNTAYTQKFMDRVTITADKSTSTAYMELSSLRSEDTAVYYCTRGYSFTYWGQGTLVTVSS VL: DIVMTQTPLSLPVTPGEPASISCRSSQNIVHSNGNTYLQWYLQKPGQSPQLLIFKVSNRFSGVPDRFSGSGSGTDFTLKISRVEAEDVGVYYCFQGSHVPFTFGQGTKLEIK | 1.42
hAb005LH2L1 (antibody, human IgG1, V domains shown, Humanized F3.54.12; VH H2 + VL L1; expressed as human IgG1) VH: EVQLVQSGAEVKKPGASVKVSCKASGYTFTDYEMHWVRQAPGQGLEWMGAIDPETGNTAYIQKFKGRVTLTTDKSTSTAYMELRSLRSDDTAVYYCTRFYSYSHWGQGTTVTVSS VL: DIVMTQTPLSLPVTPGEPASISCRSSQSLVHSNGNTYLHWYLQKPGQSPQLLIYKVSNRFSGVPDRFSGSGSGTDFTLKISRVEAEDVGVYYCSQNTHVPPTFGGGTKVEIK | 0.736
hAb007LH1L1d (antibody, human IgG1, V domains shown, Humanized F3.81.19; VH H1 + VL L1d; expressed as human IgG1) VH: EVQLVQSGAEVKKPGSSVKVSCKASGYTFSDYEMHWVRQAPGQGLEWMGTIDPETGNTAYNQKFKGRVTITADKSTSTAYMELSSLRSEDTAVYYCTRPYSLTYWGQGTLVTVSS VL: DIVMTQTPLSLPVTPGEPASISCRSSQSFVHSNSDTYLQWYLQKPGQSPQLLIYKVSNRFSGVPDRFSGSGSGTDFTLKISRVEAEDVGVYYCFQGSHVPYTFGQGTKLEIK | 6.28
